TEST: Test 4: in-blood retention after vein injection (ESR of blood plasma)
MEASUREMENT CONTEXT: in vivo, mouse, injected in the vein
PROPERTY: half-life

# half-life of `CC1(C)CC(O)CC(C)(C)N1[O]` = < 1 min
